I'd appreciate it if you could supply gamma_day5 values for the items below.
Test system: K562 CRISPRi cells
Test protocol: Perturb-seq pooled growth measurement (sgRNA counts, growth phenotype γ, relative activity)
Format: cell-based, human
Cond: pooled growth phenotype γ of the Perturb-seq sgRNA, day 5, K562 CRISPRi cells
Output: the number by itself.

Request: Tell me reported gamma_day5 for POLR2H_ + _184081251.23-P1P2_12 (guide GGGGCCACGAGAGCAGGAGA; listed as DNA, chemistry not fully specified) , tested with K562 CRISPRi cells.
Result: −0.3516

Request: HSPA9_ −_137911079.23-P1P2_04 (guide GGAGCTGCGCAATGCGGTGG; listed as DNA, chemistry not fully specified) ?
Result: −0.2005

Request: RPS18_ + _33239917.23-P1P2_04 (guide GCTGCGATCCCGCTGGATCA; listed as DNA, chemistry not fully specified) ?
Result: −0.08697

Request: CAD_ + _27440280.23-P1P2_03 (guide GGCTGGTGAGAAGCCGGGCG; listed as DNA, chemistry not fully specified) ?
Result: −0.7687

Request: DBR1_ + _137893744.23-P1P2_05 (guide GTTTGCAGGAGTGTACACCC; listed as DNA, chemistry not fully specified) ?
Result: −0.3102

Request: RPS15_ −_1438413.23-P1P2_01 (guide GACCAAACCGATCTCTTCTG; listed as DNA, chemistry not fully specified) ?
Result: 0.006616

Request: POLR2H_ + _184081251.23-P1P2_07 (guide GGGGCCACGAGTGCAGCAGA; listed as DNA, chemistry not fully specified) ?
Result: −0.1894

Request: RPS18_ + _33239917.23-P1P2_08 (guide GCTGCGATTCCGCTGGATCA; listed as DNA, chemistry not fully specified) ?
Result: −0.2228

Request: RPS15_ −_1438413.23-P1P2_07 (guide GACCAAAGCGGTCTCTTCTG; listed as DNA, chemistry not fully specified) ?
Result: −0.5221

Request: POLR1D_ + _28196016.23-P1_08 (guide GGGAAGCAGGGACCGACCGA; listed as DNA, chemistry not fully specified) ?
Result: −0.8088

Request: EIF2S1_ −_67827080.23-P1P2_00 (guide GAGCGAAGCGCACGCTGAGG; listed as DNA, chemistry not fully specified) ?
Result: −0.9047

Request: RPS18_ + _33239917.23-P1P2_00 (guide GCTGCGATGCCGCTGGATCA; listed as DNA, chemistry not fully specified) ?
Result: −0.8169
